Data origin: patent US20250144067A1

Tested on: NCI-H292 lung cancer cells
Assay: FDA drug screening, complete media vs cholesterol-free media without statin (TABLE 1)
Format: cell-based, human
Settings: NCI-H292 cells, cholesterol-free media without statin
Where a name gives a salt, the structure may show the parent alone.
quantity-kind: Cholesterol-free
Give bare numbers.

Solved cases below.
Cc1ncc(C[n+]2csc(CCO)c2C)c(N)n1 [Thiamine monochloride] : 0.9486
CN(C)CC/C=C1/c2ccccc2Sc2ccc(Cl)cc21 [Chlorprothixene (hydrochloride)] : 1.492
Cc1cc(O)cc(C)c1Cl : 1.219
COc1ccc2c(c1OC)C(=O)O[C@@H]2[C@H]1c2c(cc3c(c2OC)OCO3)CCN1C : 1.288
NNc1nncc2ccccc12 [Hydralazine (hydrochloride)] : 1.529

Please give Cholesterol-free for each item listed below.
1. Cc1cn(-c2cc(NC(=O)c3ccc(C)c(Nc4nccc(-c5cccnc5)n4)c3)cc(C(F)(F)F)c2)cn1
2. C[C@H](CCC(=O)O)[C@H]1CC[C@H]2[C@@H]3[C@@H](O)C[C@@H]4C[C@H](O)CC[C@]4(C)[C@H]3CC[C@]12C
3. CC(C)=CCC/C(C)=C/CC/C(C)=C/C=C/C(C)=C/C(=O)O
4. CC(C)[N+](C)(CCC(C(N)=O)(c1ccccc1)c1ccccc1)C(C)C.[I-] [Isopropamide (iodide)]

Result:
1.511
1.392
1.271
1.319

Please give Cholesterol-free for each item listed below.
1. C=CC[C@@H]1/C=C(\C)C[C@H](C)C[C@H](OC)[C@H]2O[C@@](O)(C(=O)C(=O)N3CCCC[C@H]3C(=O)O[C@H](/C(C)=C/[C@@H]3CC[C@@H](O)[C@H](OC)C3)[C@H](C)[C@@H](O)CC1=O)[C@H](C)C[C@@H]2OC [Tacrolimus (monohydrate)]
2. COC(=O)N[C@@H](C)CNc1nccc(-c2cn(C(C)C)nc2-c2cc(Cl)cc(NS(C)(=O)=O)c2F)n1
3. N[C@H](CS)C(=O)O
4. Nc1c(Br)cc(Br)cc1CN[C@H]1CC[C@H](O)CC1 [Ambroxol (hydrochloride)]
5. CCCCCOC(=O)Nc1nc(=O)n([C@@H]2O[C@H](C)[C@@H](O)[C@H]2O)cc1F
6. OC[C@@H](O)[C@H](O)[C@@H](O)CO

Result:
1: 1.012; 2: 0.5021; 3: 1.1; 4: 1.285; 5: 1.138; 6: 1.384

Problem: What value of measured Cholesterol-free is listed for Cn1c(=O)c2c(ncn2CC(=O)O)n(C)c1=O ?
Result: 1.455

----------
Tested on: NCI-H292 lung cancer cells
Assay: FDA drug screening, complete media vs cholesterol-free media with simvastatin (TABLE 2)
Type: cell-based, human
Counter-ions that a name gives are not always drawn.
quantity-kind: Difference
Give bare numbers.

Solved cases below.
COc1ccc(CCN(C)CCCC(C#N)(c2ccc(OC)c(OC)c2)C(C)C)cc1OC (stereo not drawn) [Verapamil (hydrochloride)] : −0.06
C=CC[N+]1([C@H]2C[C@H]3[C@@H]4CC[C@H]5C[C@H](O)[C@@H](N6CCOCC6)C[C@]5(C)[C@H]4CC[C@]3(C)[C@H]2OC(C)=O)CCCC1.[Br-] [Rocuronium (Bromide)] : 0.25
CC(C)OC(=O)[C@H](C)N[P@](=O)(CO[C@H](C)Cn1cnc2c(N)ncnc21)Oc1ccccc1 [Tenofovir alafenamide fumarate] : −0.05

Please give Difference for each item listed below.
1. C[N+]1(C)[C@@H]2CC(OC(=O)C(O)(c3cccs3)c3cccs3)C[C@H]1[C@@H]1O[C@@H]12.[Br-] (stereo partly drawn) [Tiotropium (Bromide)]
2. CC1(C)C[C@@H]1C(=O)N/C(=C\CCCCSC[C@H](N)C(=O)O)C(=O)O
3. CO[C@H]1C[C@H](O[C@@H]2/C(C)=C/C[C@@H]3C[C@@H](C[C@]4(CC[C@H](C)[C@@H](C5CCCCC5)O4)O3)OC(=O)[C@@H]3C=C(C)/C(=N/O)[C@H]4OC/C(=C\C=C\[C@@H]2C)[C@]43O)O[C@@H](C)[C@@H]1O

Result:
−1.27
−0.41
0.02

----------
Tested on: NCI-H292 lung cancer cells
Experiment: FDA drug screening, complete media vs cholesterol-free media without statin (TABLE 1)
Type: cell-based, human
Conditions: NCI-H292 cells in complete media
Structures can show the parent of a compound that is named as a salt.
quantity-kind: Complete
One number for each entry.

CN/C(=N/CCSCc1nc[nH]c1C)NC#N : 0.8083
CCN(CC)CC(=O)Nc1c(C)cccc1C : 0.9935

Please turn your attention to the following entry.
Problem: What value of measured Complete is listed for C=C1c2cccc(O)c2C(=O)C2=C(O)[C@]3(O)C(=O)C(C(N)=O)=C(O)[C@@H](N(C)C)[C@@H]3[C@@H](O)[C@H]12 [Methacycline (hydrochloride)] ?
Result: 0.9047

----------
Tested on: NCI-H292 lung cancer cells
Test: FDA drug screening, complete media vs cholesterol-free media without statin (TABLE 1)
Type: cell-based, human
Details: Complete minus Cholesterol-free; […]
Counter-ions that a name gives are not always drawn.
quantity-kind: Difference
Answers are plain numbers.

Solved cases below.
CC(C)C(Br)C(=O)NC(N)=O (centres unmarked) : −0.47
C[N+]1(C)[C@@H]2CC[C@H]1C[C@@H](OC(=O)C(O)c1ccccc1)C2.[Br-] (some centres unmarked) [Homatropine (methylbromide)] : −0.22
CCN(C)C(=O)Oc1cccc([C@H](C)N(C)C)c1 : −0.61

Please give Difference for each item listed below.
1. O=C(Nc1ccccc1)c1ccccc1O [Salicylanilide]
2. CN(CCCCCCCCCCN(C)C(=O)Oc1cccc([N+](C)(C)C)c1)C(=O)Oc1cccc([N+](C)(C)C)c1 [Demecarium Bromide]
3. CC(Cc1ccc(O)cc1)NCC(O)c1cc(O)cc(O)c1 (centres unmarked) [Fenoterol (hydrobromide)]

Result:
−0.19
−0.29
−0.09

Please give Difference for each item listed below.
1. CC[N+](C)(C)c1cccc(O)c1.[Cl-] [Edrophonium (chloride)]
2. CN1[C@H]2C[C@H](OC(=O)[C@H](CO)c3ccccc3)C[C@@H]1[C@@H](O)C2 (racemic)

Result:
1: −0.15; 2: −0.15

----------
Test system: NCI-H292 lung cancer cells
Experiment: FDA drug screening, complete media vs cholesterol-free media with simvastatin (TABLE 2)
Assay type: cell-based, human
Counter-ions that a name gives are not always drawn.
Assignment: determine reported Cholesterol-free media + simvastatin (0.04 μM) for the given molecules.
Numbers only.

CC[C@H]1CN2CCc3cc(OC)c(OC)cc3[C@@H]2C[C@@H]1C[C@H]1NCCc2cc(OC)c(OC)cc21 [Emetine (dihydrochloride hydrate)] : 0.05048
N#Cc1ccc(C2CCCc3cncn32)cc1 (centres unmarked) : 1.426
NCCCCCC(=O)O : 1.226
N=C(N)NCCCC(N)C(=O)O (racemic) : 0.9889
OCC(CO)N[C@H]1C[C@](O)(CO)[C@@H](O)[C@H](O)[C@H]1O : 0.9097
CC(C)(C)C(=O)OCC(=O)[C@H]1CC[C@H]2[C@@H]3CCC4=CC(=O)CC[C@]4(C)[C@H]3CC[C@]12C [Desoxycorticosterone pivalate] : 1.728
CC1(C)[C@H](C(=O)O)N2C(=O)C[C@H]2S1(=O)=O : 1.06

Problem: What value of measured Cholesterol-free media + simvastatin (0.04 μM) is listed for O=c1[nH]ccc2c(S(=O)(=O)N3CCCNCC3)cccc12 [Hydroxyfasudil (hydrochloride)] ?
Result: 0.8461

----------
System: NCI-H292 lung cancer cells
Test: FDA drug screening, complete media vs cholesterol-free media with simvastatin (TABLE 2)
Format: cell-based, human
Conditions: complete media vs cholesterol-free media + simvastatin (0.04 μM); >0 enhanced anti-cancer activity, about 0 neutral, <0 antagonist
Structures can show the parent of a compound that is named as a salt.
quantity-kind: Difference

Please give Difference for each item listed below.
1. N=C(N)NC(=O)c1nc(Cl)c(N)nc1N [Amiloride hydrochloride dihydrate]
2. O=C(O)c1cc(=O)c2ccccc2o1 [Chromocarb]
3. CC1(C)S[C@@H]2[C@H](NC(=O)[C@H](NC(=O)N3CCN(S(C)(=O)=O)C3=O)c3ccccc3)C(=O)N2[C@H]1C(=O)[O-].[Na+] [Mezlocillin (sodium)]

Result:
1. −0.16
2. −0.46
3. −0.26

Please give Difference for each item listed below.
1. CCN(CC)C(=S)SSC(=S)N(CC)CC [Disulfiram]
2. C[C@]12CCC(=O)C=C1CC[C@@H]1[C@@H]2C(=O)C[C@@]2(C)[C@H]1CC[C@]2(O)C(=O)CO [Cortisone]
3. O=C(O)CCCCC1CCSS1 (stereo not drawn) [α-Lipoic Acid]
4. CCOC(=O)C1=C(C)NC(C)=C(C(=O)OCC)C1c1ccccc1/C=C/C(=O)OC(C)(C)C [Lacidipine]
5. O=C(O)c1ccc(-n2nc(-c3ccccc3O)nc2-c2ccccc2O)cc1 [Deferasirox]
6. C[N+](C)(C)C[C@H](O)CC(=O)[O-] [L-Carnitine]

Result:
1: −0.08; 2: −0.15; 3: −0.11; 4: −0.84; 5: −0.26; 6: −0.09
